tested on: IGROV1 ovarian; assay: NCI tumour cell line growth inhibition, 48 h

COMPOUND | TARGET OR TEST SYSTEM | TGI
O=C(c1ccccc1)n1[nH]c(=O)n(-c2ccc(Cl)cc2)c1=O | IGROV1 ovarian | > 100 µM
CN(/N=C/c1ccc(Cl)c(Cl)c1)C1=NCCN1 | IGROV1 ovarian | > 100 µM
C=C1CO[C@@H]2C[C@@H]1CCC1(C)OC1CC/C(C)=C/CC[C@@]2(C)O (stereo partly drawn) | IGROV1 ovarian | 32 µM
COc1ccc(/C=C/C(c2cc(OC)c(OC)c(OC)c2)n2cncn2)cc1O (stereo not drawn) | IGROV1 ovarian | > 100 µM
Cc1nn(C(=O)c2ccc(Cl)cc2)c2c1C(c1ccco1)SC(N)=N2 (stereo not drawn) | IGROV1 ovarian | > 10 µM
CC12CCC(O)CC1CCC1C2CCC2(C)C(C3=CC(=O)OC3)CCC12 (stereo not drawn) | IGROV1 ovarian | > 71 µM
COc1cc(-c2coc3c(OC)c(OC4OC(COC5OC(C)C(O)C(O)C5O)C(O)C(O)C4O)c(OC)c(O)c3c2=O)cc(C)c1O (stereo not drawn) | IGROV1 ovarian | 53.1 µM
COC1=C(OC)C(=O)C(Cc2c(Cl)nc3n2CCS3)=C(C)C1=O | IGROV1 ovarian | 30.5 µM
CC(C)[C@@H](CS(=O)(=O)C(C)C)N1C(=O)[C@@](C)(CC(=O)O)C[C@H](c2cccc(Cl)c2)[C@H]1c1ccc(Cl)cc1 | IGROV1 ovarian | > 85.1 µM
Clc1cccc(N=C/C=C/Nc2cccc(Cl)c2)c1 | IGROV1 ovarian | 39.3 µM
O=c1cc2cc(O)[nH]c(=O)c2c(O)[nH]1 | IGROV1 ovarian | > 100 µM
c1cn[nH]c1 | IGROV1 ovarian | > 10 µM
C/C(=N\n1c(Cc2ccccc2)n[nH]c1=O)c1ccc([N+](=O)[O-])cc1 | IGROV1 ovarian | > 100 µM
COc1cc(C2c3cc4c(cc3OC(N3CCOCC3)C2C)OCO4)cc(OC)c1OC(C)=O (stereo not drawn) | IGROV1 ovarian | > 100 µM
O=C1NC(=S)NC(=O)C1=Cc1ccc2ccccc2n1 | IGROV1 ovarian | > 100 µM
N#Cc1ccc2oc3ccc(C#N)cc3c(=O)c2c1 | IGROV1 ovarian | > 100 µM
CC1=CC(=O)/C(=C/N2CCNC2=S)C(=O)O1 | IGROV1 ovarian | > 100 µM
CC(C)=CCC/C(C)=C/CC/C(C)=C/CSc1ccc(Cl)cc1C(=O)O | IGROV1 ovarian | 34.8 µM
